The following compounds are listed with their measured Percent Effect values.
- TARGET_OR_SYSTEM: Aspartate--tRNA(Asp/Asn) ligase (Mycobacterium tuberculosis (strain ATCC 25618 / H37Rv)) (UniProt P9WFW3)
- Sequence (whole entry): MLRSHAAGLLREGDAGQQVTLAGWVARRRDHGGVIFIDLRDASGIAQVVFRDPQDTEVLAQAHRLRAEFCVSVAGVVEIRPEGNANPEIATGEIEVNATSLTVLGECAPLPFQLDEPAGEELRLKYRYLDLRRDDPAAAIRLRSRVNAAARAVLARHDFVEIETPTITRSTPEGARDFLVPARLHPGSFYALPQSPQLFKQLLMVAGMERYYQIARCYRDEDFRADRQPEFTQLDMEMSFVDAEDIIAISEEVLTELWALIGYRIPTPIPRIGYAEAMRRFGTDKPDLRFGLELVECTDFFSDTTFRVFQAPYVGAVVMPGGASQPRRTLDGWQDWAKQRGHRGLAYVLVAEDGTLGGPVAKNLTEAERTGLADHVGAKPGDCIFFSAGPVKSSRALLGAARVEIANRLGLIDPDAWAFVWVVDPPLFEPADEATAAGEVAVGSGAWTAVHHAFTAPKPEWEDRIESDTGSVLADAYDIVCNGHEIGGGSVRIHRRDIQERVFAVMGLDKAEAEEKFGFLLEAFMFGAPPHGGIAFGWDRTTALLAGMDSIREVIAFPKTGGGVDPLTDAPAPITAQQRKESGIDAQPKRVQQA
- ASSAY_NAME: Assay for Asp RNA synthetase-1 from Mycobacterium tuberculosis
- Assay type: functional
- Set-up: scale not given: in the data most compounds retested in dose-response had high values
- CONDITION_CONTEXT: 30 µM
MEASURED_ATTRIBUTE: Percent Effect

[
  {
    "COMPOUND": "COCCc1noc(CNC2CCSC2)n1 (configuration not stated)",
    "RESULT": "-5.83%"
  },
  {
    "COMPOUND": "NC(=O)NCC(=O)N1C[C@H]2CC[C@@H]1CN(C1Cc3ccccc3C1)C2",
    "RESULT": "6.33%"
  },
  {
    "COMPOUND": "Cc1cc(NC(=O)NCCc2cccs2)n(C)n1",
    "RESULT": "1.39%"
  },
  {
    "COMPOUND": "CNC(=O)[C@H]1C[C@@H]2CN(C(=O)c3ccco3)C[C@@H]2N1S(C)(=O)=O",
    "RESULT": "-2.01%"
  },
  {
    "COMPOUND": "COC(=O)N1CCCC(C(=O)NCc2cc3cccc(OC)c3o2)C1 (configuration not stated)",
    "RESULT": "-0.457%"
  },
  {
    "COMPOUND": "O=C(O)c1ccc(S(=O)(=O)Nc2ccc(Cl)c(F)c2)c(F)c1",
    "RESULT": "-0.533%"
  },
  {
    "COMPOUND": "c1nc(CCC2CCCN2)cc(N2CCCOCC2)n1 (configuration not stated)",
    "RESULT": "-5.88%"
  },
  {
    "COMPOUND": "Cc1cc(C)n(-c2cc(N3CCN(C(=O)C(C)(C)C)CC3)nc(C)n2)n1",
    "RESULT": "0.747%"
  },
  {
    "COMPOUND": "CC(C)(C)n1cc(C(=O)N2CCCN(Cc3cccs3)CC2)cn1",
    "RESULT": "-0.0333%"
  },
  {
    "COMPOUND": "Cn1cc(C2CCCN2Cc2csc(-c3ccsc3)n2)cn1 (configuration not stated)",
    "RESULT": "7.77%"
  },
  {
    "COMPOUND": "Cc1ccc(-c2nnc(CN3CCOC(Cn4cccn4)C3)o2)cc1 (configuration not stated)",
    "RESULT": "-0.257%"
  },
  {
    "COMPOUND": "CCOc1ccccc1-c1noc(CN2CCCC(O)C2)n1 (configuration not stated)",
    "RESULT": "-5.33%"
  },
  {
    "COMPOUND": "O=C(NCCC1=CCCCC1)C1CCCN(c2ccc3nncn3n2)C1 (configuration not stated)",
    "RESULT": "-1.84%"
  },
  {
    "COMPOUND": "CC(C)Nc1ccc2nc(C3CCN(C(C)C)CC3)nn2c1",
    "RESULT": "-0.549%"
  },
  {
    "COMPOUND": "CCOCC1CN(Cc2cnn(C)c2)Cc2ncn(CC3CC3)c21 (configuration not stated)",
    "RESULT": "2.64%"
  },
  {
    "COMPOUND": "CC(C)c1nc(C(=O)N2CCCC(n3cncn3)C2)c[nH]1 (configuration not stated)",
    "RESULT": "-5.02%"
  },
  {
    "COMPOUND": "Cc1ccsc1CN(C)C(=O)Cn1nc(-c2ccc(F)cc2)oc1=O",
    "RESULT": "10.3%"
  },
  {
    "COMPOUND": "CC(C)CNC(=O)c1ccc2nnc(C3CCN(S(C)(=O)=O)C3)n2c1 (configuration not stated)",
    "RESULT": "3.22%"
  },
  {
    "COMPOUND": "COCCNC(=O)[C@H]1CN(Cc2scnc2C)C[C@H]2OCC[C@@H]12",
    "RESULT": "-3.26%"
  },
  {
    "COMPOUND": "CCS(=O)(=O)NC[C@]12COC[C@H]1CN(Cc1cccc(OC)c1)C2",
    "RESULT": "0.596%"
  },
  {
    "COMPOUND": "O=C(O)c1cc(S(=O)(=O)N2CCOc3ccccc32)ccc1F",
    "RESULT": "-4.32%"
  },
  {
    "COMPOUND": "COc1ccccc1CNC(=O)Cn1ncc2c1c(C)nn2C",
    "RESULT": "-0.668%"
  },
  {
    "COMPOUND": "O=C1COC2(CCN(Cc3ccoc3)CC2)CN1c1ccsc1",
    "RESULT": "4.25%"
  },
  {
    "COMPOUND": "COCc1nc(C(=O)NS(=O)(=O)c2cc(F)ccc2F)cs1",
    "RESULT": "-0.5%"
  },
  {
    "COMPOUND": "CCN(CC)C(=O)CCNC(=O)Cc1nc(-c2ccco2)oc1C",
    "RESULT": "-1.21%"
  },
  {
    "COMPOUND": "Cc1ccoc1C(=O)N1C[C@@H]2[C@@H](C1)OCC(=O)N2Cc1cccnc1",
    "RESULT": "2%"
  },
  {
    "COMPOUND": "Cc1ccccc1CC(=O)N1CCN(C2CCOC2=O)CC1 (configuration not stated)",
    "RESULT": "-0.136%"
  },
  {
    "COMPOUND": "O=C1CC[C@H]2CN(Cc3ccc(Cl)s3)CC[C@H]2N1CCc1c[nH]cn1",
    "RESULT": "0.912%"
  },
  {
    "COMPOUND": "COC(=O)c1cccn1C1CCN(Cc2ccccc2)CC1",
    "RESULT": "0.995%"
  },
  {
    "COMPOUND": "CCCc1n[nH]c(C2CN(CCn3cccn3)CCO2)n1 (configuration not stated)",
    "RESULT": "3.43%"
  },
  {
    "COMPOUND": "O=C(Cn1cc(C(=O)O)ccc1=O)NCc1ccc(F)c(Cl)c1",
    "RESULT": "3.08%"
  },
  {
    "COMPOUND": "Cc1nc(C)n(CC2CCCCN2CCS(C)(=O)=O)n1 (configuration not stated)",
    "RESULT": "-3.09%"
  },
  {
    "COMPOUND": "Cn1nc(C(=O)NCc2ccccn2)c2c1CCS(=O)(=O)C2",
    "RESULT": "-0.726%"
  },
  {
    "COMPOUND": "Cn1cc(C(=O)N2CCC(Cc3nccs3)CC2)cn1",
    "RESULT": "2.4%"
  },
  {
    "COMPOUND": "CC(c1nc(C2CC2)no1)N1CCN(Cc2ccccc2F)CC1 (configuration not stated)",
    "RESULT": "-7.52%"
  },
  {
    "COMPOUND": "Cn1c(C(F)(F)F)nn(CCNC(=O)NCc2ccccc2)c1=O",
    "RESULT": "-5.98%"
  },
  {
    "COMPOUND": "CCN1CCC(CNC(=O)C2(c3cccc(C)c3)CC2)C1 (configuration not stated)",
    "RESULT": "2.87%"
  },
  {
    "COMPOUND": "CC(=O)N1CC(=O)N(c2ccccc2)CC12CCN(Cc1nccs1)C2 (configuration not stated)",
    "RESULT": "7.34%"
  },
  {
    "COMPOUND": "CC(COc1ccccc1)NCc1nc(-c2cccnc2)no1 (configuration not stated)",
    "RESULT": "-2.31%"
  },
  {
    "COMPOUND": "O=C(NCCO)Nc1cccc(Cl)c1SC(F)F",
    "RESULT": "0.334%"
  },
  {
    "COMPOUND": "CC(C)CNC(=O)[C@H]1CCS(=O)(=O)[C@@H]2CN(Cc3cccc(Cl)c3)C[C@H]12",
    "RESULT": "-3.06%"
  },
  {
    "COMPOUND": "COCCO[C@@H]1CCN(C(=O)c2ccc(C)o2)[C@@H]1Cc1cnn(C)c1",
    "RESULT": "2.6%"
  },
  {
    "COMPOUND": "O=S(=O)(N1CCCCC1)N1CCc2nc(C3CCNCC3)ncc2C1",
    "RESULT": "-1.74%"
  },
  {
    "COMPOUND": "CC(C)OCc1ncn2c1CN(Cc1ccc(F)cc1)CCC2",
    "RESULT": "-1.67%"
  },
  {
    "COMPOUND": "CS(=O)(=O)N1CCOC2(CCCN(c3cnccn3)C2)C1 (configuration not stated)",
    "RESULT": "-5.91%"
  },
  {
    "COMPOUND": "Cc1ccc(Cl)cc1N1CCC(CNC(=O)CCn2ccnn2)C1 (configuration not stated)",
    "RESULT": "2.9%"
  },
  {
    "COMPOUND": "Cc1ccc(-c2nc(CN3CCOC(Cn4cccn4)C3)cs2)o1 (configuration not stated)",
    "RESULT": "-1.71%"
  }
]
